- System: THP-1
- Assay explanation: Activation of RXR-LXR heterodimer in human THP1 cells assessed as induction of ABCA1 mRNA relative to 5-((3-(1-ethyl-4,4,6-trimethyl-2-oxo-1,2,3,4-tetrahydroquinolin-7-yl)-4-(trifluoromethoxy)phenyl)methylene)thiazolidine-2,4-dione
- Assay type: cell-based
- Design: concentration or dose not given beside the values
Result type: Activity (%)
Form entry: value (%) — number only.

Known Activity results, listed for orientation:
Cc1cc2c(cc1-c1cc(/C=C/C(=O)O)ccc1OCC(F)(F)F)N(C(C)C)C(=O)CC2(C)C: 32
CCN1C(=O)CC(C)(C)c2cc(C)c(-c3cc(/C=C/C(=O)O)ccc3OCC(F)(F)F)cc21: 60
Cc1cc2c(cc1-c1cc(/C=C/C(=O)O)ccc1OC(F)(F)F)N(C)C(=O)CC2(C)C: 56

Looking up `CCN1C(=O)C(C)(C)Oc2cc(C)c(-c3cc(/C=C/C(=O)O)ccc3OC(F)(F)F)cc21` , I see its Activity listed as 79

Looking up `CCN1C(=O)C(C)(C)Oc2cc(C)c(-c3cc(/C(C)=C/C(=O)O)ccc3OC(F)(F)F)cc21` , I see its Activity listed as 76

Looking up `CCN1C(=O)CC(C)(C)c2cc(C)c(-c3cc(/C=C/C(=O)O)ccc3OC(F)(F)F)cc21` , I see its Activity listed as 81

Looking up `Cc1cc2c(cc1-c1cc(/C=C/C(=O)O)ccc1OC(F)(F)F)N(C(C)C)C(=O)CC2(C)C` , I see its Activity listed as 70
